Please provide measured Inhibition of binding (%) for the entries that follow.
target: T1, hCMV gH + gL + UL128 + UL130 + UL131A (5-member complex; HEK293T co-transfectant) (hCMV, UniProt P12824 24-743; P16832 31-278; P16837 1-171; P16772 1-214); assay: cell competition; competitor 8I21-biotin
T1 construct: whole, on cells; in the functional rows it stands for the complex on virions or transduced cells of the strain or isolate named in the readout; also called gH/gL/UL128-131A complex; pentameric complex
Numbers only, in %.

Answered cases to consult:
| binder | Inhibition of binding (%) |
| --- | --- |
| 4N10 (antibody, V domains shown, human IgG; also called 4N10-biotin) VH: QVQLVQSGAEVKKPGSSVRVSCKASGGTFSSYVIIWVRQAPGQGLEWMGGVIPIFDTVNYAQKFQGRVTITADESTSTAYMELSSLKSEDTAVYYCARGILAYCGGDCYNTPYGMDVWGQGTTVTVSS VL: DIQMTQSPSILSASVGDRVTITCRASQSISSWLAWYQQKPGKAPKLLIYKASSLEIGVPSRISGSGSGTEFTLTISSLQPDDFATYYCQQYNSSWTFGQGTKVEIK | 90 |
| 10F7 (antibody, V domains shown, human IgG; also called 10F7-biotin) VH: EVQLVESGGGLVQPGRSLRLSCTASGFTFGDYAMSWFRQAPGKGLEWVGFIRSKAYGGTTEYAASVKGRFTISRDDSKSIAYLQMNSLKTEDTAVYYCTRASSLLWLLNPQPNFDYWGQGTLVTVSS VL: SYVLTQPPSVSVAPGQTARITCGGNNIGSNNVHWYQQKPGQAPVLVVYDDSDRPSGIPERFSGSNSGNTATLTISRVEAGDEADYYCQVWDSSSDHPVFGGGTKLTVL | 0 |
| 8J16 (antibody, V domains shown, human IgG; also called 8J16-biotin) VH: QVQLQESGPGLVKPSETLSLTCSVSGGFTSSYYWSWIRQAPGKGLEWIGYVYYGESTDYNPSLKSRATISIDTSKNQFSLKLSSVTAADTAVYYCAREVDKRGFDYWGQGALVTVSS VL: EIVLTQSPGTLSLSPGERATLSCRASQSVSGGYLAWYQQEPGQAPRLVIYGASSRATGIPDRFSASGSGTDFTLTITRLEPEDFAVYYCQQYGRTPLTFGGGTKVEIK | 0 |
| 9I6 (antibody, V domains shown, human IgG; also called 9I6-biotin; 916) VH: EVQLVQSGAEVKKPGESLKISCRESGDTFPAYWIAWVRQMPGKGLEWMGIIYPIDSETTYSPSFQGQVTISADKSINTAYLQWSSLKASDSAIYYCARGTSTGLREAFHIWGQGTMVTVSS VL: DVVMTQSPLSLAVTLGQPAYISCRSSQSLGYSDGNTYLNWFQQRPGQSPRRLIYEVSNRDSGVPDRFSGSGSGTDFTLKISRVEAEDVGTYYCMQGTHWPPMCSFGQGTKLEIK | 0 |

Let us move to another entry and its Inhibition of binding (%).
Exercise: Give me measured Inhibition of binding (%), please, for this binder: 2C12 (antibody, V domains shown, human IgG; also called 2C12-biotin) VH: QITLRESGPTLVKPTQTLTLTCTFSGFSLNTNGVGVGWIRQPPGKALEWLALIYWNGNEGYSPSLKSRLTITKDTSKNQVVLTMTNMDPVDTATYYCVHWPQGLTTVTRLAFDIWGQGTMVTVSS VL: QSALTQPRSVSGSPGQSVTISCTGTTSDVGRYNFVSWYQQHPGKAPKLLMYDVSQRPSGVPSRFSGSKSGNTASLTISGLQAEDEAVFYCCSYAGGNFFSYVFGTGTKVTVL
Key: 0
